src = paper PMC4103810

Target: recombinant PCNA protein (Homo sapiens)
Sequence (P12004 whole entry): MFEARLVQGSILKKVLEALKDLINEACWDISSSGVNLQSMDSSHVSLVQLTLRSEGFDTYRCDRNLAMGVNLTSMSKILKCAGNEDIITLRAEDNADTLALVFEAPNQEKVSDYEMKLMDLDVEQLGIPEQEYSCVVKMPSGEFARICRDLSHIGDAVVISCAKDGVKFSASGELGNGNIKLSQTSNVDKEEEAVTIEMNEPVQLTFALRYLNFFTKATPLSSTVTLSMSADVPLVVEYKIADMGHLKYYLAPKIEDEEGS
Test: Fluorescence polarization competition assay (displacement of FITC-PL peptide from PCNA)
Type: binding
Design: (His)6 (N); TEV protease recognition site (N); made in house; host or cells: E. coli BL21(DE3)
Settings: estimated dissociation constant of competitive ligand-PCNA interaction, Roehrl et al. binding models, Eq. (6)/(7); read-out: Kd2
Procedure: (3) and represented as mean ± standard error of mean (Y). Fraction of the FITC-PL peptide bound (Y) was plotted as a function of the logarithm of the 12 amino acid peptide antagonist concentration (X), and IC50 values were determined by fitting the data to Eq. […] Anisotropy values were also analyzed using complete and incomplete binding models without non-specific effects as outlined in Roehrl et al..
pKd: −log10 of the molar value. No end group written: not given here.
quantity.name: pKd

> print(dat)
                substance  quantity.name  value.reported
1  RRQTSMTDFYHS-NH2 [p21]            pKd            6.21
